B1: TMEM106C (parent)
chain: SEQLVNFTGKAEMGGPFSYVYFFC

Variants of: B1
EXPERIMENTAL PROTOCOL: protein stability index of a GFP-peptide fusion (GPS, HEK-293T) (PSI 1-6); higher = more stable;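 also: lentivirally expressed fusions sorted by FACS into six bins by GFP to DsRed ratio, PSI derived from sequencing read proportions per bin multiplied by bin number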
ASSAY SETUP: c terminus: a fixed tail appended
Items are presented alongside their recorded protein stability index.
I'd appreciate a reply containing only the number, no unit.

- MUTATION: "G14F"
  protein stability index: 3.25
- MUTATION: "Y19G"
  protein stability index: 2.97
- MUTATION: "E2I"
  protein stability index: 3

Quick one: protein stability index of A11V ? 3.08

Please give the measured protein stability index for this variant: Q3D 3.39

Given the variant K10N , what is its reported protein stability index? 2.25

Bench note: what protein stability index did F7R show? 2.32

Which protein stability index value belongs to F23D ? 1.56

Would you mind telling me what protein stability index value was observed for K10F ? 2.92

Which measured protein stability index value corresponds to P16N ? 3.26

Can you share its protein stability index? I mean this variant: Q3N 3.22

# lookup: protein stability index of S18F 3.04

So what does the record say about protein stability index for T8N ? 2.63

Give the measured protein stability index of E12S . 2.79

Returns the measured protein stability index for the input variant. Input: G14H 2.88

Fill in: protein stability index of N6G is ___ 3.12

Given the variant V20Q , what is its reported protein stability index? 2.65

Query (variant): F22Q ; field requested: protein stability index 2.07

Requested field: protein stability index. Item: G14C 3.15
